# TEST: small-molecule binders of probe aLefty1, primary screen, biochemical, small-molecule microarray, 635/667 nm fluorescence (AID 1153);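 further: score merges spot fluorescence with signal-to-noise ratio from the scanned slide images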
# MEASUREMENT CONDITIONS: higher = more signal
PROPERTY LABEL: composite z-score
Quick one: just the number, no unit, thanks!

In: Any idea what composite z-score was measured for NC(=O)NCC#Cc1ccc2c(c1)[C@]1(C(=O)N2)[C@H](c2ccc(OCCO)cc2)N2[C@H](c3ccccc3)[C@H](c3ccccc3)OC(=O)[C@H]2[C@@H]1C(=O)Nc1nc2ccccc2s1 ?
Out: 0.122

In: Any idea what composite z-score was measured for COc1ccc(C#Cc2ccc3c(c2)[C@]2(C(=O)N3)[C@H](c3ccc(O)cc3)N3[C@H](c4ccccc4)[C@H](c4ccccc4)OC(=O)[C@H]3[C@@H]2C(=O)N2CCN(c3ncccn3)CC2)cc1 ?
Out: 0.312

In: Any idea what composite z-score was measured for COc1ccc([Si](C)(C)[C@H]2[C@H](CC(=O)N3Cc4ccccc4C[C@H]3CO)O[C@@]3(C(=O)N(Cc4cccc(N5C(=O)COc6ccccc65)c4)c4ccccc43)[C@@H]2C)cc1 ?
Out: -0.0035

In: Any idea what composite z-score was measured for C=C(COC)/C(=C/C[C@H](OC(C)=O)c1ccc(CO)o1)c1cnc2ccccc2c1 ?
Out: -0.145

In: Any idea what composite z-score was measured for C=CCN1C(=O)[C@]2(O[C@H](CCn3cc([C@H](O)c4ccccc4)nn3)[C@@H]([Si](C)(C)c3ccc(OC)cc3)[C@@H]2C)c2cc(N3CCOC3=O)ccc21 ?
Out: -0.417

In: Any idea what composite z-score was measured for CC(C)(C)OC(=O)CC[C@@]12N=C(c3ccc(OCCCO)cc3)O[C@@H]1c1ccccc1N(Cc1ccccc1)C2=O ?
Out: 0.659

In: Any idea what composite z-score was measured for C#CCN1C(C(=O)OCC)OC[C@H]1c1ccccc1 (stereo partly drawn) ?
Out: -0.0061

In: Any idea what composite z-score was measured for C#CCOc1ccc(C[C@H]2C(=O)O[C@H](Cc3ccccc3)[C@H](/C=C/C3CC3)N2CC#C)cc1 ?
Out: -0.279

In: Any idea what composite z-score was measured for COC(=O)C(CC#Cc1ccc2c(c1)[C@]1(C(=O)N2)[C@H](C(N)=O)[C@H]2C(=O)O[C@H](c3ccccc3)[C@H](c3ccccc3)N2[C@@H]1c1ccc(O)cc1)C(=O)OC ?
Out: -0.696

In: Any idea what composite z-score was measured for COCCOC(=O)N1C(=O)[C@@]2(c3cc(C#CCCO)ccc31)[C@H](c1ccccc1OCCO)N1[C@H](c3ccccc3)[C@H](c3ccccc3)OC(=O)[C@H]1[C@@H]2C(=O)NC[C@H](O)c1ccccc1 ?
Out: -0.0222

In: Any idea what composite z-score was measured for CC(C)C[C@@H]1NC(=O)[C@H]2C[C@@H](C(=O)NCCCC[N+](C)(C)C)[C@@H](c3cccc(OCCO)c3)N2C1=O ?
Out: -0.243

In: Any idea what composite z-score was measured for C=CCNC(=O)[C@@H]1[C@H]2C(=O)O[C@H](c3ccccc3)[C@H](c3ccccc3)N2[C@H](c2ccc(O)cc2)[C@@]12C(=O)Nc1ccccc12 ?
Out: -0.22

In: Any idea what composite z-score was measured for CCCC[C@@H](O)C1=C(C)C[C@H]2C(=O)N(C)C(=O)[C@H]2[C@H]1CO ?
Out: -0.239
